Adenosine receptor A1 (Rattus norvegicus) measurements of Ki, listed per entry.
Sequence (P25099 whole entry): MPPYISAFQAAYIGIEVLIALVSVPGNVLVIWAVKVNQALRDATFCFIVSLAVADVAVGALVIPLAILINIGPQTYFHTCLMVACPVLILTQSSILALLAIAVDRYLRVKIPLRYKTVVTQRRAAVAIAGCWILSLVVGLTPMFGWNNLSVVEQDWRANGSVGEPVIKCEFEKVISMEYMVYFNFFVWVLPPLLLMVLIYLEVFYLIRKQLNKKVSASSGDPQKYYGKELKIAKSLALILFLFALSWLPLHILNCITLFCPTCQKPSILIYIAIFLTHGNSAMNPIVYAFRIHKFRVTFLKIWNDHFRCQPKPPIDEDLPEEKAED
experimentalReadout: Ki (nM)

[
  {
    "smilesNotation": "C[C@@H](N)Cc1ccc(I)cc1",
    "experimentalReadout": "Ki",
    "readingUnit": "nM",
    "observedValue": 1.2
  },
  {
    "smilesNotation": "C[C@H](N)Cc1ccc(I)cc1",
    "experimentalReadout": "Ki",
    "readingUnit": "nM",
    "observedValue": 1820
  }
]
